- study system: GluA2/3 (UniProt P19491+P42263)
- Construct: expressed in transfected cells; host or cells: HEK293T (HEK293) cells, transient co-transfection
- Sequence (P19491 22-883 isoform P19491-2 limits assumed): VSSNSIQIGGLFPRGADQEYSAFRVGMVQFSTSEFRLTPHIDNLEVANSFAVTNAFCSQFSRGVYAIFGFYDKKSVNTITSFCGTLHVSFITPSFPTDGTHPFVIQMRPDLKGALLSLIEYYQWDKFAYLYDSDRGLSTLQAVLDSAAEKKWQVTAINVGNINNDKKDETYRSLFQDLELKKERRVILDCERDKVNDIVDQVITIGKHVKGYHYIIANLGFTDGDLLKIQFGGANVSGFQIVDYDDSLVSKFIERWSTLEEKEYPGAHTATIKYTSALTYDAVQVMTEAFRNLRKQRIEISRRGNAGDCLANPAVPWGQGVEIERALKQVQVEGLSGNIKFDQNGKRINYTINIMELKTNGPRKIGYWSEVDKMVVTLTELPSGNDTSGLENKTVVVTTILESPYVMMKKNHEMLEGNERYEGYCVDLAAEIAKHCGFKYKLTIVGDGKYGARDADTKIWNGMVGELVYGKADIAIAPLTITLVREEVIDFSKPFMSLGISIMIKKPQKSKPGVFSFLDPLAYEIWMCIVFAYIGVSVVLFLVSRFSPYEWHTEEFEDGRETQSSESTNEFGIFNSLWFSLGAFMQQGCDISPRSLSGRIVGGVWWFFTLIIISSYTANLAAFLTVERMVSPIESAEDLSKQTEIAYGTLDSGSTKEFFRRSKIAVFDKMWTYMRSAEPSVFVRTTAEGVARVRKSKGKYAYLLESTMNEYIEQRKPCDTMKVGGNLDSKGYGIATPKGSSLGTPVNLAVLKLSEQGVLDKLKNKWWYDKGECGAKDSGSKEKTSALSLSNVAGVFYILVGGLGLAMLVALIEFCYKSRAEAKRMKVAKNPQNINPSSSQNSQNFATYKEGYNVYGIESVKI
- Sequence (P42263 29-894 isoform P42263-2 limits assumed): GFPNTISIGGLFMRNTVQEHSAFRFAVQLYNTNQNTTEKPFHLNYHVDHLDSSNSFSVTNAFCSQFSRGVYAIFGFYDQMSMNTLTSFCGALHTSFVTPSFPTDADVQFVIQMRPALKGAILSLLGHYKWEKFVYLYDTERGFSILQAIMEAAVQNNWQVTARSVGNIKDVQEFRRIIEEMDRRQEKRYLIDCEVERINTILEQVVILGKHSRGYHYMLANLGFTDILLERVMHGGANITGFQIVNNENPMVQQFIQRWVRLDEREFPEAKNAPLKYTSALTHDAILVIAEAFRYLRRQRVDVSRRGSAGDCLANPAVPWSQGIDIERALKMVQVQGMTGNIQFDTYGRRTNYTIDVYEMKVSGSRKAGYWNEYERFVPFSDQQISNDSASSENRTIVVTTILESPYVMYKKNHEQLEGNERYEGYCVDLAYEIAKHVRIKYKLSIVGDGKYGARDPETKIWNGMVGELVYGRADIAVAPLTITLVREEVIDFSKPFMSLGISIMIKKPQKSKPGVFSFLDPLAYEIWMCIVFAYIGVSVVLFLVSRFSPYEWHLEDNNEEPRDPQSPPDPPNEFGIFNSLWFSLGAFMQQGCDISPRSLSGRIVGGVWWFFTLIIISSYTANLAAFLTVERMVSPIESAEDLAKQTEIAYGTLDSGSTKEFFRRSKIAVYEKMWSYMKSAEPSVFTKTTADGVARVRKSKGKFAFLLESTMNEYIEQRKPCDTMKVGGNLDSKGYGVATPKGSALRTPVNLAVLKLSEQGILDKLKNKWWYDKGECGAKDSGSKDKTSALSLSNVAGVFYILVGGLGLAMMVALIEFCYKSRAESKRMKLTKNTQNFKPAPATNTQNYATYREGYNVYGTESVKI
- procedure text: Whole-cell patch clamp recordings of heteromeric GluA2/3 AMPA receptor currents and kinetics in transfected HEK293t cells
- Format: cell-based
- measurement parameters: concentration–response fit, read-out: Log IC50 (converted)
# maps each entry to its IC50
Unit µM implied. Number only.

Observe how each entry below is paired with its result.
CSc1ccc(NC(=O)c2c(-c3c(Cl)cccc3Cl)noc2C)cc1 | 3.09
Cc1onc(-c2c(Cl)cccc2Cl)c1C(=O)Nc1ccccc1 | 6.31
COc1ccc(NC(=O)c2c(-c3c(Cl)cccc3Cl)noc2C)c(OC)c1 | 5.13
Cc1onc(-c2c(Cl)cccc2Cl)c1C(=O)Nc1ccc(OC(F)(F)F)cc1 | 6.61
COc1cc(NC(=O)c2c(-c3c(Cl)cccc3Cl)noc2C)cc(OC)c1OC | 5.37

q: What value of measured IC50 is listed for COc1cc(NC(=O)c2c(-c3c(Cl)cccc3Cl)noc2C)c(OC)cc1Cl ?
a: 3.31

q: What value of measured IC50 is listed for Cc1onc(-c2c(Cl)cccc2Cl)c1C(=O)Nc1ccc(-c2ccccc2)cc1 ?
a: 6.46

q: What value of measured IC50 is listed for Cc1onc(-c2c(F)cccc2Cl)c1C(=O)Nc1ccc(OC(F)(F)F)cc1 ?
a: 7.08

q: What value of measured IC50 is listed for COc1ccccc1Oc1ccc(NC(=O)c2c(-c3c(Cl)cccc3Cl)noc2C)cc1 ?
a: 6.17

* * *

- study system: GluA2/3 (UniProt P19491+P42263)
- Construct: expressed in transfected cells; host or cells: HEK293T (HEK293) cells, transient co-transfection
- procedure text: Whole-cell patch clamp recordings of heteromeric GluA2/3 AMPA receptor currents and kinetics in transfected HEK293t cells
- Type: cell-based
- measurement parameters: concentration–response fit, read-out: Log IC50 (converted)
measured metric: IC50 (µM)
Unit µM implied. Number only.

COc1cc(NC(=O)c2c(-c3c(Cl)cccc3Cl)noc2C)cc(OC)c1 [CIC-3] | 4.9

q: What value of measured IC50 is listed for Cc1onc(-c2c(Cl)cccc2Cl)c1C(=O)Nc1ccc(C(C)(C)C)cc1 [CIC-12] ?
a: 7.59

q: What value of measured IC50 is listed for COc1ccc(NC(=O)c2c(-c3c(Cl)cccc3Cl)noc2C)cc1OC [CIC-6] ?
a: 5.75

* * *

- study system: GluA2/3 (UniProt P19491+P42263)
- Construct: expressed in transfected cells; host or cells: HEK293T (HEK293) cells, transient co-transfection
- procedure text: Whole-cell patch clamp recordings of heteromeric GluA2/3 AMPA receptor currents and kinetics in transfected HEK293t cells
- Assay type: cell-based
- measurement parameters: 16 µM compound, mean ± SD, n = 10
measured metric: A/AI (amplitude ratio, glutamate alone / with compound)
I'd appreciate a reply containing only the number, no unit.

COc1cc(NC(=O)c2c(-c3c(Cl)cccc3Cl)noc2C)c(OC)cc1Cl [CIC-2] | 7.65

q: What value of measured A/AI (amplitude ratio, glutamate alone / with compound) is listed for Cc1onc(-c2c(Cl)cccc2Cl)c1C(=O)Nc1ccc(OC(F)(F)F)cc1 [CIC-10] ?
a: 3.86

q: What value of measured A/AI (amplitude ratio, glutamate alone / with compound) is listed for Cc1onc(-c2c(Cl)cccc2Cl)c1C(=O)Nc1ccccc1 [CIC-8] ?
a: 4.30

q: What value of measured A/AI (amplitude ratio, glutamate alone / with compound) is listed for COc1ccc(NC(=O)c2c(-c3c(Cl)cccc3Cl)noc2C)c(OC)c1 [CIC-5] ?
a: 5.37

* * *

- study system: GluA2/3 (UniProt P19491+P42263)
- Construct: expressed in transfected cells; host or cells: HEK293T (HEK293) cells, transient co-transfection
- procedure text: Whole-cell patch clamp recordings of heteromeric GluA2/3 AMPA receptor currents and kinetics in transfected HEK293t cells
- Type: cell-based
- measurement parameters: 16 µM compound co-applied with agonist, HEK293t, −60 mV, pH 7.4, 22 °C, mean ± SD, n = 10
# maps each entry to its Amplitude (peak whole-cell current in presence of compound)
Unit pA implied. Number only.

Observe how each entry below is paired with its result.
COc1ccc(NC(=O)c2c(-c3c(Cl)cccc3Cl)noc2C)cc1OC | 116
COc1cc(NC(=O)c2c(-c3c(Cl)cccc3Cl)noc2C)cc(OC)c1OC | 110

q: GET /values?readout=Amplitude (peak whole-cell current in presence of compound)&system=GluA2/3 (UniProt P19491+P42263)&item= COc1cc(NC(=O)c2c(-c3c(Cl)cccc3Cl)noc2C)cc(OC)c1
a: 101

q: GET /values?readout=Amplitude (peak whole-cell current in presence of compound)&system=GluA2/3 (UniProt P19491+P42263)&item= Cc1onc(-c2c(Cl)cccc2Cl)c1C(=O)Nc1ccc(OC(F)(F)F)cc1
a: 128

q: GET /values?readout=Amplitude (peak whole-cell current in presence of compound)&system=GluA2/3 (UniProt P19491+P42263)&item= Cc1onc(-c2c(Cl)cccc2Cl)c1C(=O)Nc1ccc(C(C)(C)C)cc1
a: 162

q: GET /values?readout=Amplitude (peak whole-cell current in presence of compound)&system=GluA2/3 (UniProt P19491+P42263)&item= COc1ccccc1Oc1ccc(NC(=O)c2c(-c3c(Cl)cccc3Cl)noc2C)cc1
a: 120

q: GET /values?readout=Amplitude (peak whole-cell current in presence of compound)&system=GluA2/3 (UniProt P19491+P42263)&item= CSc1ccc(NC(=O)c2c(-c3c(Cl)cccc3Cl)noc2C)cc1
a: 73

* * *

- study system: GluA2 (Rattus norvegicus, UniProt P19491)
- Construct: expressed in transfected cells; host or cells: HEK293T (HEK293) cells, transient co-transfection with a separate EGFP vector
- Sequence (P19491 22-883 isoform P19491-2 limits assumed): as the sequence (P19491 22-883 isoform P19491-2 limits assumed) above
- procedure text: Whole-cell patch clamp recordings of homomeric GluA2 AMPA receptor currents and kinetics in transfected HEK293t cells
- Type: cell-based
- measurement parameters: inhibition of whole-cell peak current, concentration–response, Hill fit, read-out: IC50
measured metric: IC50
Value and unit, in that order.

Observe how each entry below is paired with its result.
Cc1onc(-c2c(Cl)cccc2Cl)c1C(=O)Nc1ccccc1 [CIC-8] | 6.21 µM
Cc1onc(-c2c(Cl)cccc2Cl)c1C(=O)Nc1ccc(-c2ccccc2)cc1 [CIC-9] | 6.3 µM
Cc1onc(-c2c(Cl)cccc2Cl)c1C(=O)Nc1ccc(OC(F)(F)F)cc1 [CIC-10] | 6.51 µM
Cc1onc(-c2c(Cl)cccc2Cl)c1C(=O)Nc1ccc(C(C)(C)C)cc1 [CIC-12] | 7.54 µM
CSc1ccc(NC(=O)c2c(-c3c(Cl)cccc3Cl)noc2C)cc1 [CIC-1] | 3.03 µM

q: What value of measured IC50 is listed for COc1ccc(NC(=O)c2c(-c3c(Cl)cccc3Cl)noc2C)cc1OC [CIC-6] ?
a: 5.74 µM

q: What value of measured IC50 is listed for COc1ccc(NC(=O)c2c(-c3c(Cl)cccc3Cl)noc2C)c(OC)c1 [CIC-5] ?
a: 5.03 µM

q: What value of measured IC50 is listed for COc1cc(NC(=O)c2c(-c3c(Cl)cccc3Cl)noc2C)c(OC)cc1Cl [CIC-2] ?
a: 3.18 µM

q: What value of measured IC50 is listed for COc1cc(NC(=O)c2c(-c3c(Cl)cccc3Cl)noc2C)cc(OC)c1OC [CIC-4] ?
a: 5.26 µM

* * *

# maps each entry to its IC50
- study system: GluA2/3 (UniProt P19491+P42263)
- Construct: expressed in transfected cells; host or cells: HEK293T (HEK293) cells, transient co-transfection
- procedure text: Whole-cell patch clamp recordings of heteromeric GluA2/3 AMPA receptor currents and kinetics in transfected HEK293t cells
- Type: cell-based
- measurement parameters: inhibition of whole-cell peak current, concentration–response, Hill fit, read-out: IC50
Unit µM implied. Number only.

Observe how each entry below is paired with its result.
Cc1onc(-c2c(Cl)cccc2Cl)c1C(=O)Nc1ccccc1 | 6.3
COc1ccc(NC(=O)c2c(-c3c(Cl)cccc3Cl)noc2C)c(OC)c1 | 5.14

Okay, now this molecule:
q: GET /values?readout=IC50&system=GluA2/3 (UniProt P19491+P42263)&item= Cc1onc(-c2c(Cl)cccc2Cl)c1C(=O)Nc1ccc(-c2ccccc2)cc1
a: 6.42

* * *

- study system: GluA2 (Rattus norvegicus)
- Construct: expressed in transfected cells; host or cells: HEK293T (HEK293) cells, transient co-transfection with a separate EGFP vector
- procedure text: Whole-cell patch clamp recordings of homomeric GluA2 AMPA receptor currents and kinetics in transfected HEK293t cells
- Format: cell-based
- measurement parameters: 10 mM glutamate for 1 ms, with compound, mean ± SD
# maps each entry to its t deact (weighted deactivation time constant)
Unit ms implied. Number only.

Cc1onc(-c2c(Cl)cccc2Cl)c1C(=O)Nc1ccc(C(C)(C)C)cc1 | 2.7
Cc1onc(-c2c(Cl)cccc2Cl)c1C(=O)Nc1ccccc1 | 4.8

Okay, now this compound:
q: GET /values?readout=t deact (weighted deactivation time constant)&system=GluA2 (Rattus norvegicus)&item= COc1ccc(NC(=O)c2c(-c3c(Cl)cccc3Cl)noc2C)c(OC)c1
a: 6.1
